Experimental system: Human ENaC δ, β and γ subunit (Homo sapiens, UniProt P51168+P51170+P51172)
Construct: expressed in transfected cells; host or cells: Xenopus laevis (African clawed frog) oocytes injected with cRNA
Assay: Measurement of ENaC activation potency (MED) in ENaC-expressing oocyte, Two Electrode Voltage Clamp
Format: cell-based
Stated conditions: minimum effective dose at which current started to increase; ENaC-expressing African clawed frog oocyte; smaller MED = higher ENaC activation potency
Parameter threshold = 10 µM. Response is label 1 when MED meets or exceeds it, else label 0.

Sample answers from the record:
Smiles data | Label value
S=C(NCCc1ccccc1)NCc1nc2ccccc2[nH]1 | label 0
C[C@@H](NC(=S)Nc1c(O)cccc1O)c1ccccc1 | label 0
C[C@@H](NC(=S)NCCc1ccccc1)c1ccccc1 | label 0
COc1cccc(OC)c1CNNC(=S)N[C@H](C)c1ccccc1 | label 1
COc1ccc([C@@H](C)NC(=S)NCCc2ccccc2O)cc1OC | label 0
C[C@@H](NC(=S)NN)c1ccccc1 | label 1

Hi team, for NC(=O)[C@@H](NC(=S)NCCc1ccccc1)c1ccccc1 , is the recorded MED at or above 10 µM?
label 0

Hi team, for S=C(NCCc1ccccc1)NCc1cccc2ccccc12 , is the recorded MED at or above 10 µM?
label 0

Hi team, for O=C(O)[C@@H](NC(=S)NCCc1ccccc1O)c1ccccc1 , is the recorded MED at or above 10 µM?
label 0

Hi team, for C[C@@H](NC(=S)NCCc1ccccc1O)c1cccc(O)c1 , is the recorded MED at or above 10 µM?
label 0

Hi team, for C[C@@H](NC(=S)NCCc1ccccc1O)c1ccccc1 , is the recorded MED at or above 10 µM?
label 0

Hi team, for S=C(NCCc1ccccc1)NCc1ccc2c(c1)OCO2 , is the recorded MED at or above 10 µM?
label 0

Hi team, for O[C@H](CNC(=S)NCc1ccccc1)c1ccccc1 , is the recorded MED at or above 10 µM?
label 0

Hi team, for S=C(NCCc1ccccc1)Nc1ccccc1 , is the recorded MED at or above 10 µM?
label 0

====

Experimental system: Human ENaC δ, β and γ subunit (Homo sapiens, UniProt P51168+P51170+P51172)
Construct: expressed in transfected cells; host or cells: Xenopus laevis (African clawed frog) oocytes injected with cRNA
Sequence (P51172 1-802): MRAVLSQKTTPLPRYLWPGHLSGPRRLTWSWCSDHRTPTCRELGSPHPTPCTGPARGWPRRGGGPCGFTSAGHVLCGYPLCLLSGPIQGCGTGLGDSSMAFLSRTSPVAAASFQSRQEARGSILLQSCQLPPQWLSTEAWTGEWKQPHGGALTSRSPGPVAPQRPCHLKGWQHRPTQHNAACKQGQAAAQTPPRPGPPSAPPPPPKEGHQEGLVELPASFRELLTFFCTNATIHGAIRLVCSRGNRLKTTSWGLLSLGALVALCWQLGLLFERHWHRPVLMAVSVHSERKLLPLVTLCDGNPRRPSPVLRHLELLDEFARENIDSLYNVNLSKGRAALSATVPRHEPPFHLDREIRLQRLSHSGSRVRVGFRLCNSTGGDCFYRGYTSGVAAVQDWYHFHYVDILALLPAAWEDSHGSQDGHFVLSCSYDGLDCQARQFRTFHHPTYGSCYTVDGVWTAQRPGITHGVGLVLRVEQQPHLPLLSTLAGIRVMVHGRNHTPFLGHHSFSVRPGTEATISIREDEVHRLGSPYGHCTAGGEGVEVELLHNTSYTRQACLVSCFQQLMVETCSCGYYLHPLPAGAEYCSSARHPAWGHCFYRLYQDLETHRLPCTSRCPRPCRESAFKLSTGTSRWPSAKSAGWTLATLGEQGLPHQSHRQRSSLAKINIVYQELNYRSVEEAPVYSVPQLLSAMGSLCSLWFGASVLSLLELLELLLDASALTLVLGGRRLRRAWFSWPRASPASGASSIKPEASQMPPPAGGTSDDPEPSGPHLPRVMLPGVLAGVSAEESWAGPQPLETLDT
Sequence (P51168 1-640): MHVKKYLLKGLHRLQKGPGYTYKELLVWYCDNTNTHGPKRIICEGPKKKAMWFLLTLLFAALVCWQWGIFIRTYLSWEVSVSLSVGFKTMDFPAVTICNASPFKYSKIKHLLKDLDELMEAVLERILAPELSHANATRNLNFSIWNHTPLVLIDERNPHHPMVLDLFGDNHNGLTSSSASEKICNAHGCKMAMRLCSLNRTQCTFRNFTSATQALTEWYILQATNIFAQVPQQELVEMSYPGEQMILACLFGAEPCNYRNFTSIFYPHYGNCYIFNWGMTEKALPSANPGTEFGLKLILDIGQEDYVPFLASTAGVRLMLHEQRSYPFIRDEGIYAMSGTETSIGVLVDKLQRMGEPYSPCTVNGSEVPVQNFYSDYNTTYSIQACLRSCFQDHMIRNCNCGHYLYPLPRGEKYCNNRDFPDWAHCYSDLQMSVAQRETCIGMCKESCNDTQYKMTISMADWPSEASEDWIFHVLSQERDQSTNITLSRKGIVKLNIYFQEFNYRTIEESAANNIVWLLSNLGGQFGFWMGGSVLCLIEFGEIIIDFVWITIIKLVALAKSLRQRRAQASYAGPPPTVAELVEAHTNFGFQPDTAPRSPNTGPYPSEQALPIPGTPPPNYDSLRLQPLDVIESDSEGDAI
Sequence (P51170 1-649): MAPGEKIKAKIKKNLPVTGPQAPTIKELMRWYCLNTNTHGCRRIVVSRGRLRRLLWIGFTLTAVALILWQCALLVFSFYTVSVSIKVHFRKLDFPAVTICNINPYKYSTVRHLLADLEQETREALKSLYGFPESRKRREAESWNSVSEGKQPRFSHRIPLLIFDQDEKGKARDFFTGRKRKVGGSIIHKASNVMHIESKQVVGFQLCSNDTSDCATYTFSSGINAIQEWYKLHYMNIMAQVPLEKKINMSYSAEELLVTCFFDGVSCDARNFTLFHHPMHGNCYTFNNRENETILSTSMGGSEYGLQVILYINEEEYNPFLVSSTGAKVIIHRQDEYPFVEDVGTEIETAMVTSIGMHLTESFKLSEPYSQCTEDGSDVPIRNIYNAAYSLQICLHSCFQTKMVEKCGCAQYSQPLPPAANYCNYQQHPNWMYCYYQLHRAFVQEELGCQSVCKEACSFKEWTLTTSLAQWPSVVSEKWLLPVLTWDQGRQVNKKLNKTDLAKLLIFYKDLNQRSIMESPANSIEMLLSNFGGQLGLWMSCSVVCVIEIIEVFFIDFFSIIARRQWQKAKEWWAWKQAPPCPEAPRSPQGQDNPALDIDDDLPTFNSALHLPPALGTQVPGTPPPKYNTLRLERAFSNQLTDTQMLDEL
Assay: Measurement of ENaC activation potency (MED) in ENaC-expressing oocyte, Two Electrode Voltage Clamp
Assay type: cell-based
Stated conditions: minimum effective dose at which current started to increase; ENaC-expressing African clawed frog oocyte; smaller MED = higher ENaC activation potency
Description: ENaC activation current value, namely, the inward current in ENaC-expressing oocyte was measured as follows. According to the method described in Motonao Nakamura, Takao Shimizu: Experiment of African clawed frog oocyte, Experimental Medicine Vol. 11, No. 3, 224-232 (1993), oocyte was collected from African clawed frog, […], and the current value was measured by a Two Electrode Voltage Clamp technique. […]
Parameter threshold = 3 µM. Response is fulfilled when MED meets or exceeds it, else not fulfilled.

Sample answers from the record:
Compound | Experimental system | Label value
S=C(NCCCc1ccccc1)NCc1ccccc1 | Human ENaC δ, β and γ subunit (Homo sapiens, UniProt P51168+P51170+P51172) | fulfilled
C[C@@H](NC(=S)N[C@H](Cc1ccc(O)cc1)C(=O)O)c1cccc(O)c1 | Human ENaC δ, β and γ subunit (Homo sapiens, UniProt P51168+P51170+P51172) | not fulfilled

Hi team, for Oc1ccccc1CCNC(=S)NCc1ccccc1 , is the recorded MED at or above 3 µM?
not fulfilled

Hi team, for Nc1cccc(CNC(=S)NCCc2ccccc2)c1 , is the recorded MED at or above 3 µM?
not fulfilled

Hi team, for Cc1ccc(O)c(C(O)CNC(=S)N[C@H](C)c2cccc(O)c2)c1 (stereo partly drawn) , is the recorded MED at or above 3 µM?
not fulfilled

Hi team, for S=C(NCCC1CCCCC1)NCc1ccccc1 , is the recorded MED at or above 3 µM?
fulfilled

Hi team, for S=C(NCCc1ccccc1)NCCc1c[nH]c2ccccc12 , is the recorded MED at or above 3 µM?
fulfilled

Hi team, for C[C@@H](NC(=S)N[C@@H](Cc1ccccc1)C(=O)O)c1cccc(O)c1 , is the recorded MED at or above 3 µM?
not fulfilled

Hi team, for CC(C)CN(Cc1ccc(O)c(O)c1)C(=S)NCCc1ccccc1 , is the recorded MED at or above 3 µM?
not fulfilled

Hi team, for S=C(NCCc1ccccc1)NCc1cccnc1 , is the recorded MED at or above 3 µM?
not fulfilled

Hi team, for COc1cccc(CCNC(=S)NCc2ccccc2)c1 , is the recorded MED at or above 3 µM?
fulfilled

Hi team, for S=C(NCCc1ccccc1)NCc1ccccc1 , is the recorded MED at or above 3 µM?
not fulfilled
